Tested on: HeLa Kyoto
Measurement Description: melting temperature (median over replicates), in situ; higher = more thermally stable
Condition Summary: cell cycle stage: mitosis
Value Kind: melting temperature (°C)
Quick reminder: number only, in °C, skip the unit.

Examples with answers:
According to the records, this sequence MLRLVPTGARAIVDMSYARHFLDFQGSAIPQAMQKLVVTRLSPNFREAVTLSRDCPVPLPGDGDLLVRNRFVGVNASDINYSAGRYDPSVKPPFDIGFEGIGEVVALGLSASARYTVGQAVAYMAPGSFAEYTVVPASIATPVPSVKPEYLTLLVSGTTAYISLKELGGLSEGKKVLVTAAAGGTGQFAMQLSKKAKCHVIGTCSSDEKSAFLKSLGCDRPINYKTEPVGTVLKQEYPEGVDVVYESVGGAMFDLAVDALATKGRLIVIGFISGYQTPTGLSPVKAGTLPAKLLKKSASVQGFFLNHYLSKYQAAMSHLLEMCVSGDLVCEVDLGDLSPEGRFTGLESIFRAVNYMYMGKNTGKIVVELPHSVNSKL [ZADH2] displays melting temperature of 53.5

According to the records, this sequence MGSTESSEGRRVSFGVDEEERVRVLQGVRLSENVVNRMKEPSSPPPAPTSSTFGLQDGNLRAPHKESTLPRSGSSGGQQPSGMKEGVKRYEQEHAAIQDKLFQVAKREREAATKHSKASLPTGEGSISHEEQKSVRLARELESREAELRRRDTFYKEQLERIERKNAEMYKLSSEQFHEAASKMESTIKPRRVEPVCSGLQAQILHCYRDRPHEVLLCSDLVKAYQRCVSAAHKG [CHCHD6] displays melting temperature of 53.2

According to the records, this sequence MGTPQKDVIIKSDAPDTLLLEKHADYIASYGSKKDDYEYCMSEYLRMSGIYWGLTVMDLMGQLHRMNREEILAFIKSCQHECGGISASIGHDPHLLYTLSAVQILTLYDSINVIDVNKVVEYVKGLQKEDGSFAGDIWGEIDTRFSFCAVATLALLGKLDAINVEKAIEFVLSCMNFDGGFGCRPGSESHAGQIYCCTGFLAITSQLHQVNSDLLGWWLCERQLPSGGLNGRPEKLPDVCYSWWVLASLKIIGRLHWIDREKLRNFILACQDEETGGFADRPGDMVDPFHTLFGIAGLSLLGEEQIKPVNPVFCMPEEVLQRVNVQPELVS [RABGGTB] displays melting temperature of 50.3

Further cases:
According to the records, this sequence MAWRGWAQRGWGCGQAWGASVGGRSCEELTAVLTPPQLLGRRFNFFIQQKCGFRKAPRKVEPRRSDPGTSGEAYKRSALIPPVEETVFYPSPYPIRSLIKPLFFTVGFTGCAFGSAAIWQYESLKSRVQSYFDGIKADWLDSIRPQKEGDFRKEINKWWNNLSDGQRTVTGIIAANVLVFCLWRVPSLQRTMIRYFTSNPASKVLCSPMLLSTFSHFSLFHMAANMYVLWSFSSSIVNILGQEQFMAVYLSAGVISNFVSYVGKVATGRYGPSLGASGAIMTVLAAVCTKIPEGRLAIIFLPMFTFTAGNALKAIIAMDTAGMILGWKFFDHAAHLGGALFGIWYVTYGHELIWKNREPLVKIWHEIRTNGPKKGGGSK [PARL] displays melting temperature of 55.8

According to the records, this sequence MLAGAGRPGLPQGRHLCWLLCAFTLKLCQAEAPVQEEKLSASTSNLPCWLVEEFVVAEECSPCSNFRAKTTPECGPTGYVEKITCSSSKRNEFKSCRSALMEQRLFWKFEGAVVCVALIFACLVIIRQRQLDRKALEKVRKQIESI [JTB] displays melting temperature of 53.4

====

Test system: HeLa Kyoto
Measurement Description: solubility change mitosis vs G1/S (difference of NP-40 vs SDS log2 ratios) (log2 ratio difference); higher = more soluble in mitosis
Value Kind: solubility change mitosis (log2)
When you answer, write just the number.

According to the records, this sequence MTGNAGEWCLMESDPGVFTELIKGFGCRGAQVEEIWSLEPENFEKLKPVHGLIFLFKWQPGEEPAGSVVQDSRLDTIFFAKQVINNACATQAIVSVLLNCTHQDVHLGETLSEFKEFSQSFDAAMKGLALSNSDVIRQVHNSFARQQMFEFDTKTSAKEEDAFHFVSYVPVNGRLYELDGLREGPIDLGACNQDDWISAVRPVIEKRIQKYSEGEIRFNLMAIVSDRKMIYEQKIAELQRQLAEEEPMDTDQGNSMLSAIQSEVAKNQMLIEEEVQKLKRYKIENIRRKHNYLPFIMELLKTLAEHQQLIPLVEKAKEKQNAKKAQETK [UCHL5] displays solubility change mitosis (log2) of -0.0948

With those in mind, consider the next sequence.
According to the records, this sequence MGALVIRGIRNFNLENRAEREISKMKPSVAPRHPSTNSLLREQISLYPEVKGEIARKDEKLLSFLKDVYVDSKDPVSSLQVKAAETCQEPKEFRLPKDHHFDMINIKSIPKGKISIVEALTLLNNHKLFPETWTAEKIMQEYQLEQKDVNSLLKYFVTFEVEIFPPEDKKAIRSK [NDUFAF4] displays solubility change mitosis (log2) of -0.0449

====

Tested on: HeLa Kyoto
Measurement Description: thermal stability score vs G1/S (z-score of summed log2 fold changes over temperatures); higher = more thermally stable than in G1/S
Condition Summary: cell cycle stage: mitosis
Value Kind: thermal stability score
When you answer, write just the number.

According to the records, this substance SMARCA2 displays thermal stability score of 4.33

With those in mind, consider the next substance.
According to the records, this substance MAQVLRGTVTDFPGFDERADAETLRKAMKGLGTDEESILTLLTSRSNAQRQEISAAFKTLFGRDLLDDLKSELTGKFEKLIVALMKPSRLYDAYELKHALKGAGTNEKVLTEIIASRTPEELRAIKQVYEEEYGSSLEDDVVGDTSGYYQRMLVVLLQANRDPDAGIDEAQVEQDAQALFQAGELKWGTDEEKFITIFGTRSVSHLRKVFDKYMTISGFQIEETIDRETSGNLEQLLLAVVKSIRSIPAYLAETLYYAMKGAGTDDHTLIRVMVSRSEIDLFNIRKEFRKNFATSLYSMIKGDTSGDYKKALLLLCGEDD [ANXA5] displays thermal stability score of 5.5

====

melting temperature overview
System: HeLa Kyoto
Measurement Description: melting temperature (median over replicates), in situ; higher = more thermally stable
Condition Summary: cell cycle stage: mitosis
Quick reminder: number only, in °C, skip the unit.

Examples with answers:
According to the records, this sequence MAASTASHRPIKGILKNKTSTTSSMVASAEQPRGNVDEELSKKSQKWDEMNILATYHPADKDYGLMKIDEPSTPYHSMMGDDEDACSDTEATEAMAPDILARKLAAAEGLEPKYRIQEQESSGEEDSDLSPEEREKKRQFEMKRKLHYNEGLNIKLARQLISKDLHDDDEDEEMLETADGESMNTEESNQGSTPSDQQQNKLRSS [PPP1R2] displays melting temperature of 52.4

According to the records, this sequence MADAAPQLGKRKRELDVEEAHAASTEEKEAGVGNGTCAPVRLPFSGFRLQKVLRESARDKIIFLHGKVNEASGDGDGEDAVVILEKTPFQVEQVAQLLTGSPELQLQFSNDIYSTYHLFPPRQLNDVKTTVVYPATEKHLQKYLRQDLRLIRETGDDYRNITLPHLESQSLSIQWVYNILDKKAEADRIVFENPDPSDGFVLIPDLKWNQQQLDDLYLIAICHRRGIRSLRDLTPEHLPLLRNILHQGQEAILQRYRMKGDHLRVYLHYLPSYYHLHVHFTALGFEAPGSGVERAHLLAEVIENLECDPRHYQQRTLTFALRADDPLLKLLQEAQQS [DCPS] displays melting temperature of 55.7

According to the records, this sequence MAPLGGAPRLVLLFSGKRKSGKDFVTEALQSRLGADVCAVLRLSGPLKEQYAQEHGLNFQRLLDTSTYKEAFRKDMIRWGEEKRQADPGFFCRKIVEGISQPIWLVSDTRRVSDIQWFREAYGAVTQTVRVVALEQSRQQRGWVFTPGVDDAESECGLDNFGDFDWVIENHGVEQRLEEQLENLIEFIRSRL [PMVK] displays melting temperature of 47.8

According to the records, this sequence MLPLSLLKTAQNHPMLVELKNGETYNGHLVSCDNWMNINLREVICTSRDGDKFWRMPECYIRGSTIKYLRIPDEIIDMVKEEVVAKGRGRGGLQQQKQQKGRGMGGAGRGVFGGRGRGGIPGTGRGQPEKKPGRQAGKQ [LSM4] displays melting temperature of 54.6

According to the records, this sequence MSSEPPPPPQPPTHQASVGLLDTPRSRERSPSPLRGNVVPSPLPTRRTRTFSATVRASQGPVYKGVCKCFCRSKGHGFITPADGGPDIFLHISDVEGEYVPVEGDEVTYKMCSIPPKNEKLQAVEVVITHLAPGTKHETWSGHVISS [CARHSP1] displays melting temperature of 55.2

Further cases:
According to the records, this sequence MVGRNSAIAAGVCGALFIGYCIYFDRKRRSDPNFKNRLRERRKKQKLAKERAGLSKLPDLKDAEAVQKFFLEEIQLGEELLAQGEYEKGVDHLTNAIAVCGQPQQLLQVLQQTLPPPVFQMLLTKLPTISQRIVSAQSLAEDDVE [TOMM20] displays melting temperature of 51.7

According to the records, this sequence MVIRVYIASSSGSTAIKKKQQDVLGFLEANKIGFEEKDIAANEENRKWMRENVPENSRPATGYPLPPQIFNESQYRGDYDAFFEARENNAVYAFLGLTAPPGSKEAEVQAKQQA [SH3BGRL] displays melting temperature of 53

According to the records, this sequence MAGKKNVLSSLAVYAEDSEPESDGEAGIEAVGSAAEEKGGLVSDAYGEDDFSRLGGDEDGYEEEEDENSRQSEDDDSETEKPEADDPKDNTEAEKRDPQELVASFSERVRNMSPDEIKIPPEPPGRCSNHLQDKIQKLYERKIKEGMDMNYIIQRKKEFRNPSIYEKLIQFCAIDELGTNYPKDMFDPHGWSEDSYYEALAKAQKIEMDKLEKAKKERTKIEFVTGTKKGTTTNATSTTTTTASTAVADAQKRKSKWDSAIPVTTIAQPTILTTTATLPAVVTVTTSASGSKTTVISAVGTIVKKAKQ [SAP30BP] displays melting temperature of 53.6

According to the records, this sequence MEVLAAETTSQQERLQAIAEKRKRQAEIENKRRQLEDERRQLQHLKSKALRERWLLEGTPSSASEGDEDLRRQMQDDEQKTRLLEDSVSRLEKEIEVLERGDSAPATAKENAAAPSPVRAPAPSPAKEERKTEVVMNSQQTPVGTPKDKRVSNTPLRTVDGSPMMKAAMYSVEITVEKDKVTGETRVLSSTTLLPRQPLPLGIKVYEDETKVVHAVDGTAENGIHPLSSSEVDELIHKADEVTLSEAGSTAGAAETRGAVEGAARTTPSRREITGVQAQPGEATSGPPGIQPGQEPPVTMIFMGYQNVEDEAETKKVLGLQDTITAELVVIEDAAEPKEPAPPNGSAAEPPTEAASREENQAGPEATTSDPQDLDMKKHRCKCCSIM [PALM] displays melting temperature of 57
